Test system: A498
experimentSummary: NCI tumour cell line growth inhibition, 48 h
Active and inactive are the calls of the source. Cut-off read from the data, not from the text of the source: active = GI50 up to about 1.1 µM and inactive = higher.
Reported GI50 values for the following compounds.

compound	experimentalEndpoint	measuredValue
OC1(c2ccc(-c3ccccc3)cc2)c2ccccc2C2=NCCN21 (stereo not given)	GI50	31.6 µM (inactive)
CC1=C(SCCO)C(=O)c2ccccc2C1=O	GI50	16.9 µM (inactive)
O=c1oc2ccc3ccccc3c2cc1-c1nc2ccccc2s1	GI50	> 100 µM (inactive)
C=C1C(=O)O[C@@H]2C(=O)[C@@H](C)[C@@H]3C=CC(=O)[C@@]3(C)[C@@H](OC(=O)/C(C)=C\C)[C@H]12	GI50	1.69 µM (inactive)

// moving on: another record for GI50
Recorded GI50 of "CN(C)CC/C(=N\Nc1c(Cl)cccc1Cl)c1ccccc1" , please. 16.6 µM (inactive)

###

Tested on: SN12C
experimentSummary: NCI tumour cell line growth inhibition, 48 h
Activity calls are given as the source filed them. Rule as the data show it: active = GI50 up to about 1.1 µM and inactive = higher.
I would appreciate it if you answered using one of these outcomes: True for active, False for inactive

compound	cat
Nc1ccc2c(O)cc(O)nc2n1	False
Brc1ccc2c(-c3nc(-c4c[nH]c5ccc(Br)cc45)cs3)c[nH]c2c1	False
COc1cccc(-c2nc(-c3cnccn3)n(C/C=C/c3ccccc3)n2)c1	False
COc1cc(OC)cc(Oc2nc3cc(F)c(F)cc3nc2-c2ccccc2)c1	False

How was "O=C(CC(O)(C(F)(F)Cl)C(F)(F)Cl)CC(O)(C(F)(F)Cl)C(F)(F)Cl" classified in this test? False

How was O=c1[nH]c(=O)n(C2OC(CO)C(N(O)Cc3ccc(F)cc3)C2O)cc1Br (stereo unspecified) classified in this test? False

How was "CCOC(=O)NC(Nc1ccc(C)cc1)(C(F)(F)F)C(F)(F)F" classified in this test? False

How was "O=C(NCc1cccc2ccccc12)N/N=C\c1ccc(Cl)cc1" classified in this test? False

How was "CC[n+]1c(/C=C/c2ccc(N(CCCl)CCCl)cc2)ccc2cc(NC(=O)/C=C/c3ccccc3)ccc21" classified in this test? True

How was CC(=O)OC1CCn2nnc(CO)c21 (stereo unspecified) classified in this test? False

How was CC1S/C(=N/c2nnc(-c3ccccc3)o2)NC1=O (stereo unspecified) classified in this test? False

###

Test system: SF-295
experimentSummary: NCI tumour cell line growth inhibition, 48 h
Activity calls are given as the source filed them. No stated cut-off is given here; in the data, active = GI50 up to about 1.1 µM and inactive = higher.
Reported GI50 values for the following compounds.

compound	GI50
Cc1cc(N(CCC#N)CCC#N)ccc1/N=N/c1ccc(C(=O)O)cc1	> 100 µM (inactive)
COc1ccc(C(=O)c2ccc(-n3c4ccccc4c4ccc5c(c43)C(=O)C=CC5=O)cc2)cc1	5.43 µM (inactive)
Nc1c(-c2cn(Cc3ccccc3)c3ccccc23)[n+]([O-])c2ccccc2[n+]1[O-]	21.9 µM (inactive)
COc1ccc(CN2CCC/C=C/CC(Cl)(Cl)C2=O)cc1	20.5 µM (inactive)

Recorded GI50 of O=C1OC(CN2CCOCC2)CN1/N=C/c1ccc([N+](=O)[O-])o1 (stereo not drawn) [FURALTADONE] , please. 34.9 µM (inactive)

Recorded GI50 of "Cc1[nH]c2ccccc2c1/C=C/c1c(C)[nH]c2ccccc12" , please. > 100 µM (inactive)

Recorded GI50 of CCCCCCCCCC1CC(=O)OC2=C1C(=O)CCC2 (stereo not drawn) , please. > 100 µM (inactive)

Recorded GI50 of O=C1[C@H]2ON(c3ccccc3)C(c3ccco3)[C@H]2C(=O)N1c1ccc(Cc2ccc(N3C(=O)[C@@H]4ON(c5ccccc5)C(c5ccco5)[C@@H]4C3=O)cc2)cc1 (stereo partly drawn) , please. > 100 µM (inactive)
